Source listed as ChEMBL document CHEMBL3621146.

Items are presented alongside their recorded EC50.
system_name: Glucose-dependent insulinotropic receptor (Homo sapiens, UniProt Q8TDV5)
Sequence (Q8TDV5 whole entry): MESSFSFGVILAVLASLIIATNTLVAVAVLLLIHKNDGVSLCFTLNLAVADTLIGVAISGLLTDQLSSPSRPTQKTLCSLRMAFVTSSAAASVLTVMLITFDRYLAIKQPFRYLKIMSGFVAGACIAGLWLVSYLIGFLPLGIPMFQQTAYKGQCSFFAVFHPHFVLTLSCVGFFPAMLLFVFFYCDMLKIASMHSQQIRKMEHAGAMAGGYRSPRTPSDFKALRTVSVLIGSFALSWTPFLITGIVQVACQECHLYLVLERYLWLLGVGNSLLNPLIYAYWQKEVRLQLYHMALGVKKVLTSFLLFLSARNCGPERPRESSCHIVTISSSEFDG
assay_remarks: Agonist activity at human GPR119 expressed in CHO cells by cAMP assay
assay_endpoint: EC50

| compound | system_name | experimental_result |
| --- | --- | --- |
| COC(C)c1cnc(N2CCC([C@H]3C[C@H]3COCc3ccc(S(C)(=O)=O)cc3F)CC2)nc1 (stereo in doubt; 29) | Glucose-dependent insulinotropic receptor (Homo sapiens, UniProt Q8TDV5) | 3.1 nM |
| COCc1cnc(N2CCC([C@H]3C[C@H]3COCc3ccc(S(C)(=O)=O)c(F)c3)CC2)nc1 | Glucose-dependent insulinotropic receptor (Homo sapiens, UniProt Q8TDV5) | 3.3 nM |
| COC(C)c1cnc(N2CCC([C@H]3C[C@H]3COCc3ccc(S(C)(=O)=O)cc3F)CC2)nc1 (stereo in doubt; 30) | Glucose-dependent insulinotropic receptor (Homo sapiens, UniProt Q8TDV5) | 4.6 nM |
| COCc1cnc(N2CCC([C@H]3C[C@H]3COCc3ccc(S(C)(=O)=O)cc3F)CC2)nc1 | Glucose-dependent insulinotropic receptor (Homo sapiens, UniProt Q8TDV5) | 2.1 nM |
